# System: pain induced by the intraperitoneal injection of acetic acid
# PROTOCOL: Analgesic activity, Koster's test on mice (acetic acid writhing)
# Assay type: in vivo, male mice
# ASSAY_SETUP: Mus musculus, po, per os, 30 minutes before acetic acid, chemical stimulus
Binary label based on ED50 with cut-off 100 mg/kg: below gives Fulfilled, not below gives Not fulfilled.

- COMPOUND: "CCC1Oc2ccc(Cl)cc2N(CC(O)CO)C1=O (stereo not drawn)"
  CAT: "Fulfilled"
- COMPOUND: "CCC1Oc2ccc(Br)cc2N(CC(O)CO)C1=O (stereo not drawn)"
  CAT: "Not fulfilled"
- COMPOUND: "Cc1c(N(C)C)c(=O)n(-c2ccccc2)n1C [Amidopyrine, amidopyrine, reference compound]"
  CAT: "Not fulfilled"
- COMPOUND: "CC1Oc2ccc([N+](=O)[O-])cc2N(CC(O)CO)C1=O (stereo not drawn)"
  CAT: "Not fulfilled"
- COMPOUND: "C=CCc1cc(OC)c2c(c1)N(CC(O)CO)C(=O)C(C)O2 (stereo not drawn)"
  CAT: "Not fulfilled"

I'd appreciate it if you could check whether CC1Oc2ccc(Cl)cc2N(CC(O)CO)C1=O (stereo not drawn) has ED50 smaller than 100 mg/kg. Fulfilled

Lab log: compare recorded ED50 with 100 mg/kg; is it strictly lower for CCCC1Oc2ccc(Cl)cc2N(CC(O)CO)C1=O (stereo not drawn) ? Fulfilled

---

# maps each entry to its DL50 per os in mice
# ASSAY_SETUP: Table III

Request the reported DL50 per os in mice associated with CC1Oc2ccc([N+](=O)[O-])cc2N(CC(O)CO)C1=O (centres unmarked) > 1000 mg/kg

# lookup: DL50 per os in mice of CC(=O)OCC(CN1C(=O)C(C)Oc2ccc(Cl)cc21)OC(C)=O (centres unmarked) > 1500 mg/kg

Entry CC(=O)OCC(CN1C(=O)COc2ccc(Cl)cc21)OC(C)=O (centres unmarked) has what DL50 per os in mice? > 1500 mg/kg

Sample CCC1Oc2ccc(Cl)cc2N(CC(COC(C)=O)OC(C)=O)C1=O (centres unmarked) — what was its DL50 per os in mice? > 1500 mg/kg

Which DL50 per os in mice value is on record for COc1ccc2c(c1)N(CC(O)CO)C(=O)C(C)O2 (centres unmarked) ? > 1000 mg/kg

---

# PROTOCOL: in vivo
# ASSAY_SETUP: mouse, po
This section presents compounds with their documented LD50 values.

Would you please look over these solved cases?
- COMPOUND: "C=CCc1cc(OC)c2c(c1)N(CC(O)CO)C(=O)C(C)O2 (centres unmarked)"
  LD50: "> 1500 mg/kg"
- COMPOUND: "CCC1Oc2ccc(Cl)cc2N(CC(O)CO)C1=O (centres unmarked)"
  LD50: "1660 mg/kg"
- COMPOUND: "CC1Oc2ccc([N+](=O)[O-])cc2N(CC(O)CO)C1=O (centres unmarked)"
  LD50: "> 1000 mg/kg"
- COMPOUND: "CCCC1Oc2ccc(Cl)cc2N(CC(O)CO)C1=O (centres unmarked)"
  LD50: "> 1500 mg/kg"
- COMPOUND: "Cc1c(N(C)C)c(=O)n(-c2ccccc2)n1C [Amidopyrine, amidopyrine, reference compound]"
  LD50: "1850 mg/kg"
- COMPOUND: "O=C1COc2ccc(Cl)cc2N1CC(O)CO (centres unmarked)"
  LD50: "1700 mg/kg"
- COMPOUND: "CC1Oc2ccc(Cl)cc2N(CC(O)CO)C1=O (centres unmarked)"
  LD50: "850 mg/kg"
- COMPOUND: "CCC1Oc2ccccc2N(CC(O)CO)C1=O (centres unmarked)"
  LD50: "1200 mg/kg"
- COMPOUND: "CCCc1cc(OC)c2c(c1)N(CC(O)CO)C(=O)C(C)O2 (centres unmarked)"
  LD50: "> 1500 mg/kg"
- COMPOUND: "CC(=O)OCC(CN1C(=O)COc2ccc(Cl)cc21)OC(C)=O (centres unmarked)"
  LD50: "> 1500 mg/kg"

Please give the measured LD50 for this compound: CCCCC1Oc2ccc(Cl)cc2N(CC(O)CO)C1=O (centres unmarked) 1500 mg/kg

What value of LD50 has been recorded for this entry: CCC1Oc2ccc(Cl)cc2N(CC(COC(C)=O)OC(C)=O)C1=O (centres unmarked) > 1500 mg/kg

Any idea what its LD50 is? The compound is CCC1Oc2ccc(Br)cc2N(CC(O)CO)C1=O (centres unmarked) > 1500 mg/kg

Param item = COc1ccc2c(c1)N(CC(O)CO)C(=O)C(C)O2 (centres unmarked) ; retrieve measured LD50. > 1000 mg/kg

Which LD50 value is on record for CC(=O)OCC(CN1C(=O)C(C)Oc2ccc(Cl)cc21)OC(C)=O (centres unmarked) ? > 1500 mg/kg

Reported LD50, compound CC1Oc2cc(Br)c(Cl)cc2N(CC(O)CO)C1=O (centres unmarked) : ____ > 1500 mg/kg

Need LD50, item Cc1ccc2c(c1)N(CC(O)CO)C(=O)C(C)O2 (centres unmarked) > 1500 mg/kg
